Readings of NOEC for the listed compounds
System: Tagia sp.
Settings: chronic/long-term; reproduction
Write the number in mg/kg without appending the unit.

Completed entries (count: 3):
INSERT INTO assay_data (compound, test_system, experimental_result) VALUES
  ('COc1cc(-n2nc(C)n(C(F)F)c2=O)c(F)cc1Cl', 'Tagia sp.', 0.256),
  ('CCOC(=O)C(Cl)Cc1cc(-n2nc(C)n(C(F)F)c2=O)c(F)cc1Cl (centres undefined)', 'Tagia sp.', 8),
  ('O=C(O)c1cc(-n2nc(C(=O)O)n(C(F)F)c2=O)c(F)cc1Cl', 'Tagia sp.', 0.152);

Now consider the entry below.
Return reported NOEC. Input compound: O=C(O)c1cc(-n2nc(CO)n(C(F)F)c2=O)c(F)cc1Cl 0.056
